Numbers sourced from patent US9221864B2.

Tested on: matched RNA complement 5′-r(AGCAAAYAACGC)-3′, Y=A
assay.name: Thermal stability (Tm) of 12mer oligomeric compounds duplexed to matched RNA complement
Type: binding
test.settings: relative to unmodified DNA 12mer ISIS 438705; 1.2 μM, 10 mM sodium phosphate buffer pH 7.2, 100 mM NaCl, 0.1 mM EDTA
Would you mind telling me the reported ΔTm/mod vs RNA, Matched, Y = A of each entry?

substance	ΔTm/mod vs RNA, Matched, Y = A
ISIS 438705: unmodified 12mer DNA GCGTTTTTTGCT, phosphodiester linkages, SEQ ID No. 5, purchased from commercial sources (unmodified DNA)	0 (ref) ° C.
ISIS 438707: 12mer GCGTTT1TTTGCT with one LNA nucleoside, phosphodiester linkages, SEQ ID No. 5 (DNA GCGTTT_{1}TTTGCT; as printed in the source, key not given here)	+5.5 °C
ISIS 560180: 12mer GCGTTTaTTTGCT with one α-L-LNA nucleoside, phosphodiester linkages, SEQ ID No. 5 (DNA GCGTTT_{a}TTTGCT; as printed in the source, key not given here)	+5.7 °C

Then there is this substance:
I have this substance here, A01: 12mer GCGTTTbTTTGCT with one α-L-TriNA (α-L-tricyclic nucleic acid) nucleoside, phosphodiester linkages, SEQ ID No. 5 (DNA GCGTTT_{b}TTTGCT; as printed in the source, key not given here) [Compound A01] , and I need its recorded ΔTm/mod vs RNA, Matched, Y = A.
+7.1 °C
